biological target: T1, human GPVI extracellular region-human Fc fusion protein (hGPVI-hFc) (human); test: SPR BIACORE 3000 as in Example 5
T1 construct: Expressed in COS-1, purified on Protein A; also called GPVI-HHH-hFc; hGPVIHHH-hFc
T1 sequence (chain, as listed by the source limits assumed): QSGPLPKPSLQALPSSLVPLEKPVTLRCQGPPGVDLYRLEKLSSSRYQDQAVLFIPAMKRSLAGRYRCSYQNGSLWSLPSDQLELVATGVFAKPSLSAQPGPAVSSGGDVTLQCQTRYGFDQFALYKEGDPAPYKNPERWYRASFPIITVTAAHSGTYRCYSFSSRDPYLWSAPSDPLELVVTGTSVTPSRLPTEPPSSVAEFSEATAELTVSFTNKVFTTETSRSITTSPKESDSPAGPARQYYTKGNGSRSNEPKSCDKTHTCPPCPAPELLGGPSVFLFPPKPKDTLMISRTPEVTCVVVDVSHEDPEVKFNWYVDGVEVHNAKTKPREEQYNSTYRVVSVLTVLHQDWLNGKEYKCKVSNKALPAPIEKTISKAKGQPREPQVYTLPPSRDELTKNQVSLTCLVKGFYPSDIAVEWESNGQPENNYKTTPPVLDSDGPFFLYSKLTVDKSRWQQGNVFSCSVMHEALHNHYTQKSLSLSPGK
Field: KD (Relative value). Provide a value for each of the binders that follow.

Quick check: KD (Relative value) of F1249-30-1 (antibody, V domains shown, mouse hybridoma monoclonal antibody) VH: QVQLQQSGAELVRPGVSVKISCKGSGYTFTDYAMHWVKQSHAKSLEWIGVISTYYGDTSYNQKFKGKAAMTVDKSSSTAYMELARLTSDDSAIYYCARAEDYDPWFAYWGQGTLVTVSA VL: DIVLTQSPASLAVSLGQRATISCRASESVDSYGNSFMHWYQQKPGQPPKLLIYRASNLESGIPARFSGSGSRTDFTLTINPVEADDVATYYCQQSDEDPLTFGAGTKLELKR ?
0.347 relative to F1232-37-2 = 1

Quick check: KD (Relative value) of F1245-5-1 (antibody, V domains shown, mouse hybridoma monoclonal antibody) VH: QVQLQQPGAELVKPGASVKLSCKASGYTFISYWMHWVKQRPGQGLEWIGMIHPNSGSTHYNEKFKSKATLTVDKSSSTAYMQLSSLTSEDSAVYYCARGGVTPVAYWGQGTLVTVSA VL: SIVMTQTPKFLLVSAGDRVTITCKASQSVSNDVAWYQQKPGQSPKLLIYYASNRYTGVPDRFTGSGYGTDFTFTISTVQAEDLAVYFCQQDYSSPWTFGGGTKLEIKR ?
1.43 relative to F1232-37-2 = 1
